- system-under-test: T1, cynomolgus CD3 epsilon (cynomolgus monkey, UniProt Q95LI5 22-117, limits assumed)
- T1 construct: Recombinant protein; also called cyno CD3E
- T1 sequence: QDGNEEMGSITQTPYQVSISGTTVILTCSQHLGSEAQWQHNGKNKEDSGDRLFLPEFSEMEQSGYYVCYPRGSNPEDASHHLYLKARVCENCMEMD
- run-description: SPR (Biacore), antibody captured, cynomolgus CD3 epsilon analyte
I'd be grateful if you could share measured Kd for these entries.
Answers are plain numbers, in nM.

2037-B10_Hc-Y61D (antibody, human IgG1, lambda, V domains shown, human IgG1, lambda; also called SRP 2037 Y61D; 2037-B10_VH-Y61D) VH: EVQLVESGGGLVKPGGSLRLSCAASGFTFNKYAMNWVRQAPGKGLEWVARIRTKYNNYATDYADSVKDRFTISRDDSKNTAYLQMNSLKTEDTAVYYCVRHGNFGNSYISYWAYWGQGTPVTVSS VL: QTVVTQEPSLTVSPGGTVTLTCGSSTGAVTSGYYPNWLQQKPGQAPRGLIGGTKFLAPGTPARFSGSLLGGKAALTLSGVQPEDEAEYYCALWYSNRWVFGGGTQLTVTG    1.73
2037-B10_Hc-Y55D (antibody, human IgG1, lambda, V domains shown, human IgG1, lambda; also called SRP 2037 Y55D; 2037-B10_VH-Y55D) VH: EVQLVESGGGLVKPGGSLRLSCAASGFTFNKYAMNWVRQAPGKGLEWVARIRTKDNNYATYYADSVKDRFTISRDDSKNTAYLQMNSLKTEDTAVYYCVRHGNFGNSYISYWAYWGQGTPVTVSS VL: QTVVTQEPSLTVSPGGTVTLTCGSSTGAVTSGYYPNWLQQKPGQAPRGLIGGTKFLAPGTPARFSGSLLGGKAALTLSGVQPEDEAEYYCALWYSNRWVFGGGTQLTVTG    1

The following binders each have a reported value; give each one's Kd.
1. SRP 2037-B10 F104D/LC6 (antibody, human IgG1, kappa, V domains shown, human IgG1, kappa) VH: EVQLVESGGGLVKPGGSLRLSCAASGFTFNKYAMNWVRQAPGKGLEWVARIRTKYNNYATYYADSVKDRFTISRDDSKNTAYLQMNSLKTEDTAVYYCVRHGNDGNSYISYWAYWGQGTPVTVSS VL: DIQMTQSPSSLSASVGDRVTITCGSSTGAVTSGYYPNWLQQKPGQAPRGLIGGTKFLAPGVPSRFSGSLSGGKATLTISSLQPEDFATYYCALWYSNRWVFGGGTKVEIKR
2. 2037-B10_Hc-S107D (antibody, human IgG1, lambda, V domains shown, human IgG1, lambda; also called SRP 2037 S107D; 2037-B10_VH-S107D) VH: EVQLVESGGGLVKPGGSLRLSCAASGFTFNKYAMNWVRQAPGKGLEWVARIRTKYNNYATYYADSVKDRFTISRDDSKNTAYLQMNSLKTEDTAVYYCVRHGNFGNDYISYWAYWGQGTPVTVSS VL: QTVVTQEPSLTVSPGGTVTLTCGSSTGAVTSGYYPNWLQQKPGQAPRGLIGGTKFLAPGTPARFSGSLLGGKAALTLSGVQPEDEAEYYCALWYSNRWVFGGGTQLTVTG
3. SRP 2037-B10 S107D/LC6 (antibody, human IgG1, kappa, V domains shown, human IgG1, kappa; also called 2037-B10 IgG S107D Lc6) VH: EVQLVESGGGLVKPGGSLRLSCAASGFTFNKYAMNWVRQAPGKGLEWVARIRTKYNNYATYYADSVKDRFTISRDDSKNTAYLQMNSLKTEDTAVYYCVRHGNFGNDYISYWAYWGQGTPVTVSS VL: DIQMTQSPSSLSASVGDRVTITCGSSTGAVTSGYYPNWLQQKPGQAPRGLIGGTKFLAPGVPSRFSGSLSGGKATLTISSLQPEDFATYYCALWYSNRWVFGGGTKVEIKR

[14.9, 1.64, 3.41]
